B1: PLK2 (parent)
chain: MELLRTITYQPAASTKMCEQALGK

variants of: B1; assay: protein stability index of a GFP-peptide fusion (GPS, HEK-293T) (PSI 1-6); higher = more stable; details: c terminus: a fixed tail appended;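 also: lentivirally expressed fusions sorted by FACS into six bins by GFP to DsRed ratio, PSI derived from sequencing read proportions per bin multiplied by bin number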
Reported protein stability index values follow for various variants
Quick one: just the number, no unit, thanks!

// known answers, use as guide
1) R5W    2.88
2) C18E    1.96
3) Q20M    3.03
4) A21Y    2.16
5) Q10W    2.6

So, `K16F` ? Its protein stability index was 1.83

So, `A13E` ? Its protein stability index was 2.09

So, `L4E` ? Its protein stability index was 3.69

So, `T15R` ? Its protein stability index was 1.44

So, `L22P` ? Its protein stability index was 1.79

So, `C18P` ? Its protein stability index was 3.07
